Parameter: fold change (FC). Scope: all listed entries.
system.name: Tubulin (Homo sapiens) (UniProt P68371+Q9H4B7+P0DPH7+P68366+Q13509+Q71U36+P04350+Q3ZCM7+P07437+P68363+Q9BQE3+Q6PEY2+Q13885+Q9BVA1+Q9BUF5)
measurement.protocol: Stabilization of microtubules in human QBI293 cells assessed as fold change in alpha tubulin levels at 10 uM after 4 hrs by ELISA relative to DMSO
Format: cell-based
Enter the number alone.

Some entries whose results are on file:
C[C@H](Nc1c(-c2c(F)cc(C#N)cc2F)c(Cl)nc2ncnn12)C(F)(F)F ... 0.95
CC(C)CNc1c(-c2c(F)cc(F)cc2F)c(Cl)nc2ncnn12 ... 0.99
C[C@H](Nc1c(-c2c(F)cc([S+](C)[O-])cc2F)c(Cl)nc2ncnn12)C(F)(F)F (stereo not given in full) ... 0.93
Fc1cc(F)c(-c2c(Cl)nc3ncnn3c2NC2CCCCC2)c(F)c1 ... 0.99
C[C@H](Nc1c(Cc2c(F)cc(F)cc2F)c(Cl)nc2ncnn12)C(F)(F)F ... 1.05
CC(Oc1c(-c2c(F)cc(F)cc2F)c(Cl)nc2ncnn12)C(F)(F)F (stereo not given) ... 1.04
CCCNc1c(-c2c(F)cc(F)cc2F)c(Cl)nc2ncnn12 ... 0.86
C[C@H](Nc1c(-c2c(F)cc(S(C)(=O)=O)cc2F)c(Cl)nc2ncnn12)C(F)(F)F ... 1.02

Q: Could you tell me which fold change (FC) is on file for Fc1cc(F)c(-c2c(Cl)nc3ncnn3c2NC2CC2)c(F)c1 ?
A: 1.26

Q: Form field: reported fold change (FC) of C[C@H](Nc1c(-c2ccc(C#N)cc2F)c(Cl)nc2ncnn12)C(F)(F)F
A: 1
